Origin of the recorded values: the NIST ThermoML archive (doi:10.1021/je700297c)

test: activity coefficient (dimensionless); of the first substance listed, at infinite dilution; xn = mol fraction of the nth substance listed; details: 333 K; Liquid; Chromatography; x1 = 0
recorded-metric: activity coefficient
Form field (numeric): enter value without unit.

C=CCCCC [hex-1-ene] + CCCCCCCCCCCCCCCCCC(=O)[O-].CCCCn1cc[n+](C)c1 : 1.2
CC1CCCCC1 [methylcyclohexane] + CCCCCCCCCCCCCCCCCC(=O)[O-].CCCCn1cc[n+](C)c1 : 1.3
c1ccccc1 [benzene] + CCCCCCCCCCCCCCCCCC(=O)[O-].CCCCn1cc[n+](C)c1 : 0.7
CCO [ethanol] + CCCCCCCCCCCCCCCCCC(=O)[O-].CCCCn1cc[n+](C)c1 : 0.4

Recorded result, CCCCCCC [heptane] + CCCCCCCCCCCCCCCCCC(=O)[O-].CCCCn1cc[n+](C)c1 , activity coefficient: 1.5

Recorded result, C=CCCCCCC [oct-1-ene] + CCCCCCCCCCCCCCCCCC(=O)[O-].CCCCn1cc[n+](C)c1 , activity coefficient: 1.4

Recorded result, Cc1ccccc1 [toluene] + CCCCCCCCCCCCCCCC(=O)[O-].CCCCn1cc[n+](C)c1 , activity coefficient: 0.8

Recorded result, Cc1ccccc1 [toluene] + CCCCCCCCCCCCCCCCCC(=O)[O-].CCCCn1cc[n+](C)c1 , activity coefficient: 0.8

====

assay: activity coefficient (dimensionless); of the first substance listed, at infinite dilution; xn = mol fraction of the nth substance listed; details: 303 K; Liquid; Chromatography; x1 = 0
The label depends only on activity coefficient: Fulfilled if it is at least 60, Not fulfilled if it is smaller.

Here are 5 compounds together with their reported answers.
C=CCCCC [hex-1-ene] + C[n+]1ccn(CCCC#N)c1.O=S(=O)([N-]S(=O)(=O)C(F)(F)F)C(F)(F)F : Not fulfilled
C1CCCCC1 [cyclohexane] + C[n+]1ccn(CCCC#N)c1.O=S(=O)([N-]S(=O)(=O)C(F)(F)F)C(F)(F)F : Not fulfilled
CCCCCCC [heptane] + C[n+]1ccn(CCCC#N)c1.N#CN=C=[N-] : Fulfilled
C=CCCCCCC [oct-1-ene] + C[n+]1ccn(CCCC#N)c1.N#CN=C=[N-] : Fulfilled
CO [methanol] + C[n+]1ccn(CCCC#N)c1.N#CN=C=[N-] : Not fulfilled

Prompt: Could you verify whether the entry C1CCCCC1 [cyclohexane] + C[n+]1ccn(CCCC#N)c1.N#CN=C=[N-] shows activity coefficient of no less than 60?
Response: Fulfilled

Prompt: Could you verify whether the entry c1ccsc1 [thiophene] + C[n+]1ccn(CCCC#N)c1.O=S(=O)([N-]S(=O)(=O)C(F)(F)F)C(F)(F)F shows activity coefficient of no less than 60?
Response: Not fulfilled

Prompt: Could you verify whether the entry c1ccccc1 [benzene] + C[n+]1ccn(CCCC#N)c1.N#CN=C=[N-] shows activity coefficient of no less than 60?
Response: Not fulfilled

====

activity coefficient: recorded values
experiment: activity coefficient (dimensionless); of the first substance listed, at infinite dilution; xn = mol fraction of the nth substance listed; conditions: 323 K; Liquid; Chromatography; x1 = 0
Form field (numeric): enter value without unit.

c1ccsc1 [thiophene] + CCCCCCCCCCCCCCCCCC(=O)[O-].CCCCn1cc[n+](C)c1 : 0.8

Recorded result, CCCCCCC [heptane] + CCCCCCCCCCCCCCCCCC(=O)[O-].CCCCn1cc[n+](C)c1 , activity coefficient: 1.8

Recorded result, c1ccccc1 [benzene] + CCCCn1cc[n+](C)c1.F[B-](F)(F)F , activity coefficient: 1.5

Recorded result, CCOC(C)=O [ethyl acetate] + CCCCCCCCCCCCCCCCCC(=O)[O-].CCCCn1cc[n+](C)c1 , activity coefficient: 1.1

Recorded result, CCOC(C)=O [ethyl acetate] + CCCC[n+]1ccn(C)c1.O=S(=O)([N-]S(=O)(=O)C(F)(F)F)C(F)(F)F , activity coefficient: 0.7

Recorded result, O [water] + CCCC[n+]1ccn(C)c1.O=S(=O)([N-]S(=O)(=O)C(F)(F)F)C(F)(F)F , activity coefficient: 2.6

Recorded result, C=CCCCC [hex-1-ene] + C[n+]1ccn(CCCC#N)c1.N#CN=C=[N-] , activity coefficient: 60.4

Recorded result, CCCCCCC [heptane] + CCCCn1cc[n+](C)c1.F[B-](F)(F)F , activity coefficient: 70.3

Recorded result, Cc1ccccc1 [toluene] + CCCCCCCCCCCCCCCCCC(=O)[O-].CCCCn1cc[n+](C)c1 , activity coefficient: 0.8

====

assay: activity coefficient (dimensionless); of the first substance listed, at infinite dilution; xn = mol fraction of the nth substance listed; details: 298 K; Liquid; Chromatography; x1 = 0
recorded-metric: activity coefficient
Form field (numeric): enter value without unit.

CCCCCCCC [octane] + CCCCn1cc[n+](C)c1.F[B-](F)(F)F : 117
C=CCCCC [hex-1-ene] + CCCCn1cc[n+](C)c1.F[B-](F)(F)F : 25.8
C1CCCCC1 [cyclohexane] + CCCCCCCC[n+]1ccn(C)c1.F[B-](F)(F)F : 5.3
c1ccccc1 [benzene] + CCCCn1cc[n+](C)c1.F[B-](F)(F)F : 1.5
CO [methanol] + CCCCCCCC[n+]1ccn(C)c1.F[B-](F)(F)F : 0.3
CC1CCCCC1 [methylcyclohexane] + CCCCn1cc[n+](C)c1.F[B-](F)(F)F : 43.7
C=CCCCCCC [oct-1-ene] + CCCCCCCC[n+]1ccn(C)c1.F[B-](F)(F)F : 7.8
CO [methanol] + CCCCn1cc[n+](C)c1.F[B-](F)(F)F : 0.8

As a next step, examine the compound that follows.
Recorded result, CCCCCCCC [octane] + CCCCCCCC[n+]1ccn(C)c1.F[B-](F)(F)F , activity coefficient: 16.1

====

assay: activity coefficient (dimensionless); of the first substance listed, at infinite dilution; xn = mol fraction of the nth substance listed; conditions: 323 K; Liquid; Chromatography; x1 = 0
recorded-metric: activity coefficient
Form field (numeric): enter value without unit.

C1CCOC1 [tetrahydrofuran] + C[n+]1ccn(CCCC#N)c1.N#CN=C=[N-] : 1.5
c1ccsc1 [thiophene] + CCCCCCCC[n+]1ccn(C)c1.F[B-](F)(F)F : 0.8
CO [methanol] + CCCCCCCC[n+]1ccn(C)c1.F[B-](F)(F)F : 0.3
CCOC(C)=O [ethyl acetate] + C[n+]1ccn(CCCC#N)c1.N#CN=C=[N-] : 2.7

As a next step, examine the compound that follows.
Recorded result, c1ccccc1 [benzene] + C[n+]1ccn(CCCC#N)c1.N#CN=C=[N-] , activity coefficient: 2.2

====

assay: activity coefficient (dimensionless); of the first substance listed, at infinite dilution; xn = mol fraction of the nth substance listed; conditions: 303 K; Liquid; Chromatography; x1 = 0
recorded-metric: activity coefficient
Form field (numeric): enter value without unit.

Known activity coefficient results, listed for orientation:
C1CCOC1 [tetrahydrofuran] + C[n+]1ccn(CCCC#N)c1.N#CN=C=[N-] : 1.6
CCCCCCC [heptane] + C[n+]1ccn(CCCC#N)c1.O=S(=O)([N-]S(=O)(=O)C(F)(F)F)C(F)(F)F : 134
C1CCOC1 [tetrahydrofuran] + C[n+]1ccn(CCCC#N)c1.O=S(=O)([N-]S(=O)(=O)C(F)(F)F)C(F)(F)F : 1.3

As a next step, examine the compound that follows.
Recorded result, c1ccsc1 [thiophene] + C[n+]1ccn(CCCC#N)c1.N#CN=C=[N-] , activity coefficient: 1.7

====

assay: activity coefficient (dimensionless); of the first substance listed, at infinite dilution; xn = mol fraction of the nth substance listed; settings: 323 K; Liquid; Chromatography; x1 = 0
recorded-metric: activity coefficient

Known activity coefficient results, listed for orientation:
CCOC(C)=O [ethyl acetate] + CCCCCCCC[n+]1ccn(C)c1.F[B-](F)(F)F : 0.8
CCO [ethanol] + CCCCCCCCCCCCCCCCCC(=O)[O-].CCCCn1cc[n+](C)c1 : 0.5
Cc1ccccc1 [toluene] + CCCCn1cc[n+](C)c1.F[B-](F)(F)F : 2.4

Recorded result, C1CCCCC1 [cyclohexane] + CCCC[n+]1ccn(C)c1.O=S(=O)([N-]S(=O)(=O)C(F)(F)F)C(F)(F)F , activity coefficient: 6.7

Recorded result, CCCCCC [hexane] + CCCC[n+]1ccn(C)c1.O=S(=O)([N-]S(=O)(=O)C(F)(F)F)C(F)(F)F , activity coefficient: 12.8

====

activity coefficient: recorded values
assay: activity coefficient (dimensionless); of the first substance listed, at infinite dilution; xn = mol fraction of the nth substance listed; conditions: 323 K; Liquid; Chromatography; x1 = 0
Form field (numeric): enter value without unit.

C1CCOC1 [tetrahydrofuran] + CCCCn1cc[n+](C)c1.F[B-](F)(F)F : 1.4

Recorded result, C=CCCCCCC [oct-1-ene] + CCCCn1cc[n+](C)c1.F[B-](F)(F)F , activity coefficient: 48.3

Recorded result, CCCCCC [hexane] + CCCCCCCC[n+]1ccn(C)c1.F[B-](F)(F)F , activity coefficient: 6.7

Recorded result, C1CCCCC1 [cyclohexane] + CCCCn1cc[n+](C)c1.F[B-](F)(F)F , activity coefficient: 24.7

Recorded result, C1CCOC1 [tetrahydrofuran] + CCCCCCCCCCCCCCCCCC(=O)[O-].CCCCn1cc[n+](C)c1 , activity coefficient: 0.7

Recorded result, c1ccsc1 [thiophene] + C[n+]1ccn(CCCC#N)c1.O=S(=O)([N-]S(=O)(=O)C(F)(F)F)C(F)(F)F , activity coefficient: 1.4

Recorded result, CCCCCCC [heptane] + C[n+]1ccn(CCCC#N)c1.O=S(=O)([N-]S(=O)(=O)C(F)(F)F)C(F)(F)F , activity coefficient: 126

Recorded result, C=CCCCCCC [oct-1-ene] + C[n+]1ccn(CCCC#N)c1.O=S(=O)([N-]S(=O)(=O)C(F)(F)F)C(F)(F)F , activity coefficient: 106
